# test summary: Pharmacokinetic (PK) assay in mice
# Format: in vivo
# condition details: mouse, plasma; IV 1 mg/kg, CD-1 mice
# class assignment by measured AUC(0-t): class 1 = under 700 ng·h/mL, class 2 = from 700 ng·h/mL up to 7000 ng·h/mL, class 3 = 7000 ng·h/mL and over

Solved entries (count: 6):
compound: CC(C)(C[C@H]1CN(S(=O)(=O)c2cccc(C(F)(F)F)c2)c2cc(-c3cc(F)cc(OC(F)F)c3)ccc2O1)C(=O)O [LYC-55716, reference compound]
classification: class 1
--
compound: CCS(=O)(=O)c1ccc(C(COC)C(=O)Nc2cc(Cl)c(-c3ccc(S(C)(=O)=O)cc3)c(Cl)c2)cc1 (stereo not drawn)
classification: class 2
--
compound: COCC(C(=O)Nc1cc(Cl)c(-c2ccc(S(=O)(=O)C3CC3)cc2)c(Cl)c1)c1ccc(S(C)(=O)=O)cc1 (stereo not drawn)
classification: class 3
--
compound: COCC(C(=O)Nc1ccc(-c2ccc(S(=O)(=O)C3CC3)cc2)c(C(F)(F)F)c1)c1ccc(S(C)(=O)=O)cc1 (single isomer, unassigned)
classification: class 2
--
compound: CCS(=O)(=O)c1ccc(CC(=O)Nc2cc(Cl)c(-c3ccc(S(C)(=O)=O)cc3)c(Cl)c2)cc1
classification: class 2
--
compound: CS(=O)(=O)c1ccc(CC(=O)Nc2cc(Cl)c(-c3ccc(S(=O)(=O)C4CC4)cc3)c(Cl)c2)cc1
classification: class 3

Task: Class label required: CCS(=O)(=O)c1ccc(-c2c(Cl)cc(NC(=O)Cc3ccc(S(=O)(=O)CC)cn3)cc2Cl)cc1
Output: class 2

Task: Tag the class for CCS(=O)(=O)c1ccc(-c2c(Cl)cc(NC(=O)C(COC)c3ccc(S(C)(=O)=O)cc3)cc2Cl)cc1 (stereo not drawn)
Output: class 1

src = patent US20220402867A1
